Several publications report pIC50 on Tyrosine-protein kinase JAK3 (Homo sapiens, UniProt P52333); those values are gathered here.
pIC50: −log10 of the molar value.

A selection of reference data follows.
{"molecule": "C=CC(=O)Nc1cccc(Oc2nc(Nc3ccc(CN4CCN(CC)CC4)cc3)nc3ccsc23)c1", "endpoint name": "pIC50", "measurement": "7.00 to 7.30"}
{"molecule": "C[C@H](Nc1cccc(Nc2ccc[nH]c2=O)n1)c1ccc(F)cn1", "endpoint name": "pIC50", "measurement": "> 7.00"}
{"molecule": "Cc1ccc(NC(=O)c2cc(C(F)(F)F)cc(Cl)c2F)cc1-c1ccc2c(c1)[nH]c1ncncc12", "endpoint name": "pIC50", "measurement": "≥ 6.30"}
{"molecule": "Cc1cnc(Nc2cc(Cl)c[nH]c2=O)nc1N[C@@H](C)c1ccc(F)cn1", "endpoint name": "pIC50", "measurement": "> 7.00"}
{"molecule": "NC(=O)c1cnc2[nH]ccc2c1NN1CCC(C(=O)NCC(F)(F)F)CC1", "endpoint name": "pIC50", "measurement": 7.67}

Could you now look at the following compound, please?
Fill blank: measured pIC50 of the compound CCC(CC)n1cc(-c2nc(-c3cnn(CC(C)(C)CO)c3)cn3nccc23)cn1 is ____.
5.00 to 6.00
